Origin of measurements: BindingDB's records for doi:10.1016/j.bmcl.2017.04.068

Recorded measurements of pEC50, one per entry
test: Inhibition of rilpivirine-resistant HIV1 NL4-3 reverse transcriptase E138K mutant infected in human TZM-b1 cells after 2 days by bright Glo-luciferase reporter gene assay
The scale used: pEC50 is minus the common logarithm of the concentration in molar units.

Enquiry: What value of pEC50 has been reported for the following molecule? COCCOC(=O)c1cc(N)c(Nc2ccc(C#N)cc2)cc1Oc1c(C)cc(/C=C/C#N)cc1C
Return: 8.34

Enquiry: // next record Cc1cc(/C=C/C#N)cc(C)c1Oc1cc(Nc2ccc(C#N)cc2)c(N)cc1C(=O)OCCC#N
Return: 8.54

====

experiment: Inhibition of rilpivirine-resistant HIV1 NL4-3 reverse transcriptase E138K mutant infected in human TZM-b1 cells after 2 days by bright Glo-luciferase reporter gene assay
Recorded measurements of EC50, one per entry
Express the result in nM but write the number alone.

Sample answers from the record:
Enquiry: What value of EC50 has been reported for the following compound? Cc1cc(/C=C/C#N)cc(C)c1Oc1cc(Nc2ccc(C#N)cc2)c(N)cc1C(=O)N1CC1
Return: 8.7

Enquiry: // next record Cc1cc(/C=C/C#N)cc(C)c1Oc1cc(Nc2ccc(C#N)cc2)c(N)cc1C(=O)NCCCO
Return: 23

New cases:
Enquiry: What value of EC50 has been reported for the following compound? Cc1cc(/C=C/C#N)cc(C)c1Oc1cc(Nc2ccc(C#N)cc2)c(N)cc1C(=O)NCCCl
Return: 8.5
